TARGET_UNDER_TEST: LMPTP-A (Low Molecular Weight Protein Tyrosine Phosphatase-A) enzyme (Homo sapiens (Human))
Sequence (P24666 whole entry): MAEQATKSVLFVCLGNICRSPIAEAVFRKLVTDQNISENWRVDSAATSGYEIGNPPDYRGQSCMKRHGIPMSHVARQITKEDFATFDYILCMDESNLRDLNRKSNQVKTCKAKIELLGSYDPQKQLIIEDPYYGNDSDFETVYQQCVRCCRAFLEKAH
ASSAY_INFO: LMPTP primary screening / LMPTP (OMFP) enzyme inhibition assay, fluorescence intensity
Format: biochemical
PROTOCOL_CONDITIONS: LMPTP-A, OMFP substrate, method of Example 2; read-out: IC50
TEST_READOUT: IC50

These solved cases illustrate the format of a correct answer.
INSERT INTO results (compound, test_readout, result) VALUES
  ('Fc1ccc(-c2ccc(-c3cc(NCCCN4CCCCC4)c4ccccc4n3)cc2)cc1', 'IC50', '801 to 5000 nM'),
  ('CCN(C)C(=O)c1ccc(-c2cc(NCCCN3CCCCC3)c3ccccc3n2)cc1', 'IC50', '801 to 5000 nM'),
  ('COc1cccc(OC)c1-c1cc(NCCCN2CCCCC2)c2ccccc2n1', 'IC50', '> 5000 nM'),
  ('CN(C)Cc1ccc(Nc2cc(-c3cccc(Cl)c3)nc3ccccc23)cc1', 'IC50', '801 to 5000 nM'),
  ('c1cc2c3c(cc(-c4cc(NCCCN5CCCCC5)c5ccccc5n4)cc3c1)CC2', 'IC50', '200 to 800 nM');

Reported IC50 for Fc1cc(Cl)ccc1-c1cc(NCCCc2cccnc2)c2ccccc2n1 : what is it?
801 to 5000 nM

Reported IC50 for CN(C)c1cc(-c2ccc(OC(F)(F)F)cc2)nc2ccccc12 : what is it?
801 to 5000 nM

Reported IC50 for N#CCCNC(=O)c1ccc(-c2cc(NCCCN3CCCCC3)c3ccccc3n2)cc1 [Compound I59] : what is it?
200 to 800 nM
